Values from the supplement of paper PMC10065799

Tested on: c-Abl (mouse);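 further: 11-residue human phosphosite peptides and single-mutation variants displayed on the E. coli surface, counted by deep sequencing, each peptide's frequency after selection divided by its frequency in the unselected input library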;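 further: frequency after pTyr selection over input frequency; kinase dosed for 20-30% of maximal phosphorylation in three min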
EXPERIMENT SUMMARY: phosphorylation enrichment, bacterial display (enrichment ratio); higher = better substrate or ligand; peptides without Tyr show the background
Entries and their measured phosphorylation enrichment follow.
Please state the value as a number alone, without comment.

Previously resolved entries follow.
CONSTRUCT SEQUENCE: YLGRDYLETLM [DUS3L_Y610]
OBSERVED RESULT: 0.898
//
CONSTRUCT SEQUENCE: GGYTWYCDGKK [PROS1_Y266_C265W]
OBSERVED RESULT: 0.882

Per the records, this sequence ( WIGRKYKKVRF [F8_Y442_R437W] ) has phosphorylation enrichment equal to 0.676

Per the records, this sequence ( MDFRSYPHEFG [RBM10_Y44_R46H_YF] ) has phosphorylation enrichment equal to 0.465

Per the records, this sequence ( MKVPVYETPAG [PGM5_Y358] ) has phosphorylation enrichment equal to 18.2
